These entries and their values trace back to the supplement of paper PMC7125110.

B1: glmS ribozyme (parent)
chain: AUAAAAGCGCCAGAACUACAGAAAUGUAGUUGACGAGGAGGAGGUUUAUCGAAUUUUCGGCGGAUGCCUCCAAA

# Variants of: B1
# Procedure Details: self-cleavage kobs at 10000 uM GlcN6P; higher = faster cleavage; RNA array
# Condition Details: with glucosamine-6-phosphate
Fewer inactive variants are shown than the library holds.
// self-cleavage kobs at 10000 uM GlcN6P lookup, one value per entry
Reply numerically in s⁻¹, unit not repeated.

What self-cleavage kobs at 10000 uM GlcN6P value was documented for this variant, C16A U55G ? 0.00216

What self-cleavage kobs at 10000 uM GlcN6P value was documented for this variant, A12U C16A ? 0.00413

What self-cleavage kobs at 10000 uM GlcN6P value was documented for this variant, A12G U30G A53U ? 9.4e-05

What self-cleavage kobs at 10000 uM GlcN6P value was documented for this variant, G40C U56C ? 5.45e-05

What self-cleavage kobs at 10000 uM GlcN6P value was documented for this variant, G29U G40U ? 0.000349

What self-cleavage kobs at 10000 uM GlcN6P value was documented for this variant, U56G C67A ? 0.00273

What self-cleavage kobs at 10000 uM GlcN6P value was documented for this variant, A15U U56A ? 0.00509

What self-cleavage kobs at 10000 uM GlcN6P value was documented for this variant, G13A C16U G32U ? 0.000302

What self-cleavage kobs at 10000 uM GlcN6P value was documented for this variant, G32C U47G U55G U65C U69G ? 0.000357

What self-cleavage kobs at 10000 uM GlcN6P value was documented for this variant, A15C U56C ? 0.000914

What self-cleavage kobs at 10000 uM GlcN6P value was documented for this variant, C16A G32A ? 0.000787

What self-cleavage kobs at 10000 uM GlcN6P value was documented for this variant, A12U C71G ? 0.00305

What self-cleavage kobs at 10000 uM GlcN6P value was documented for this variant, A12G G35C G60A U65G C68G ? 0.000121

What self-cleavage kobs at 10000 uM GlcN6P value was documented for this variant, U46G U47G ? 0.00188

What self-cleavage kobs at 10000 uM GlcN6P value was documented for this variant, A42G U55A C68G ? 7.44e-05

What self-cleavage kobs at 10000 uM GlcN6P value was documented for this variant, A39C U56C ? 0.00101

What self-cleavage kobs at 10000 uM GlcN6P value was documented for this variant, A48C U54G ? 0.000402

What self-cleavage kobs at 10000 uM GlcN6P value was documented for this variant, A12C A52U ? 0.000329
